# measurement-target: acetylcholine receptor
# experimental-protocol: SPR, AchR immobilised on CM5 chip, peptide 10 uM
Provide the recorded Binding affinity (RU) for the entries that follow.
Numbers only, in RU.

A selection of reference data follows.
> print(dat)
                 binder  endpoint.result
1   KNSHKK [6mer-2-601]               25
2   KYTFKR [6mer-2-718]               12
3  KKTSMR [6mer-1-1032]               27
4   KRTKGR [6mer-1-947]               31
5   KNMNRK [6mer-2-791]               27

Fill in Binding affinity (RU) for each of the 3 binders listed.
1. KKPKHK [6mer-1-1010]
2. KRCNDK [6mer-1-1055]
3. KKTARR [6mer-2-627]

result:
33
40
33
